# Test system: HCC-2998 colon
# PROTOCOL_TEXT: NCI-60 one-dose screen, 48 h (100 = growth as untreated, 0 = no growth, -100 = all killed)
# REPORTED_CONDITIONS: 10 µM unless noted
The panel holds about 83,000 compounds, 20% with a hit somewhere; the sample as a whole holds those more often.
Property: growth; scope: individual compounds
MEASURED_PROPERTY: growth (%)

INSERT INTO results (compound, measured_property, experimental_value) VALUES
  ('Cc1onc(-c2c(F)cccc2Cl)c1-c1ncc(-c2ccc(Br)cc2)o1', 'growth', 58.6),
  ('C[n+]1c(/C=C\C=C\N2CCCCC2)sc2ccccc21', 'growth', 14),
  ('CC(C)c1ncc([N+](=O)[O-])n1C', 'growth', 105),
  ('Cc1ccnc(Nc2nc3ccccc3[nH]2)n1', 'growth', 112),
  ('Cc1c(Cl)cccc1N=C=S', 'growth', 92.9),
  ('CC(C)=CCC[C@@H](C)[C@H]1CC[C@@]2(C)C3=C(CC[C@]12C)[C@@]1(C)CC[C@H](O)C(C)(C)[C@@H]1CC3', 'growth', 101),
  ('CCOC(=O)N[C@H]1CCc2cc(OC)c(OC)c(OC)c2-c2ccc(SC)c(=O)cc21', 'growth', 12.2),
  ('COc1ccc(/C=C\C(=O)/C=C/c2ccc(OC)cc2)cc1', 'growth', -16),
  ('CC(=O)CSc1ncnc2nc[nH]c12', 'growth', 97.5),
  ('COC(=O)c1ccccc1C(=O)c1c(C)cc(C)cc1C', 'growth', 94.4),
  ('CCCCNc1ccc(-c2ccc(NCCCC)cc2)cc1', 'growth', 94.7),
  ('O=Cc1ccc(Cl)c(Cl)c1', 'growth', 97.2),
  ('Clc1cccc(Cl)c1C1CSc2ccccc2N=C1c1ccccc1 (centres undefined)', 'growth', 95.4),
  ('COC1C(=O)CCC2(CO2)C1(O)C1(C)OC1CCC(C)C (centres undefined)', 'growth', 76.4),
  ('Cc1ccc(Cc2ccc(C)cc2)cc1', 'growth', 100),
  ('COCC(N)=O', 'growth', 110),
  ('CCCNS(=O)(=O)c1ccc(Cl)cc1', 'growth', 98.9),
  ('NNc1ncccn1', 'growth', 102),
  ('COc1cccc(C(=O)O)c1OC', 'growth', 98.6),
  ('O=C(O)CC1=CCCCC1', 'growth', 94.3),
  ('CCCCCCCCCCC(=O)CCCCCCCCCC', 'growth', 94.4),
  ('CCOP(=O)(OCC)/C(=C\N1C(=O)CC(=O)NC1=S)C(=O)OC', 'growth', 85.7),
  ('O=c1cc(Cl)nc2ccccn12', 'growth', 102),
  ('O=C(O)c1cccc(-n2ncc(Cl)c(Cl)c2=O)c1', 'growth', 108),
  ('COC1OC(COC(C)=O)C(OC(C)=O)C(OC(C)=O)C1OC(C)=O (centres undefined)', 'growth', 101),
  ('COc1ccc(C2CC(c3ccccc3)=Nc3ccccc3S2)cc1 (centres undefined)', 'growth', 111),
  ('C(=C\c1ccncc1)/c1ccncc1', 'growth', 99.3),
  ('CCCOCc1cn[nH]n1', 'growth', 104),
  ('CC(=O)C1C(=O)C(=O)N(c2cccc([N+](=O)[O-])c2)C1=O (centres undefined)', 'growth', 85.9),
  ('CCCCCC/C=C\CCCCCCCCCc1cc(O)cc(OC)c1O', 'growth', 35.7),
  ('O=C(Nc1c(Cl)cc(Cl)cc1Cl)ON=C1CCCCC1', 'growth', 117),
  ('Nc1cc2c(cc1Cl)C(=O)c1ccccc1C2=O', 'growth', 69),
  ('COc1ccc2c(Cl)cc(NC(=O)Nc3c(C)cccc3C)nc2c1', 'growth', 95.3),
  ('O=Cc1ccc(O)c(O)c1', 'growth', 93.3);
